Answer each item with its documented RAMPO Score.
measured_on: T1, P3028 (VFDEFKPLVEEPQNLIK, SEQ ID NO: 185), His-tagged (human)
T1 construct: Synthetic fragment of human serum albumin (positions 397-413); used in solution as His-tagged peptide PGE73; also called PGE73; not shown: His-tag
T1 peptide: VFDEFKPLVEEPQNLIK
assay_text: PEPSCAN ELISA; peptide on chip, His-P3028 added;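 further: peroxidase color development with ABTS and H2O2 substrate, OD405 imaged by CCD camera with image processing and taken as raw values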
Value expressed in rampo units; do not type the unit.

Entry KKLDTFFCKLSLFTER [KKLDTFFCKLSLFTER (SEQ ID NO: 519)] : reported RAMPO Score = ?
254

Entry KKLDTFFVKLSLFTYR [KKLDTFFVKLSLFTYR (SEQ ID NO: 459)] : reported RAMPO Score = ?
340

Entry KKLGTFFVKLSLFTER [KKLGTFFVKLSLFTER (SEQ ID NO: 515)] : reported RAMPO Score = ?
264

Entry EKLDTFFVKLSLFTER [EKLDTFFVKLSLFTER (SEQ ID NO: 270)] : reported RAMPO Score = ?
396

Entry KKLDTFFVKLSLFAER [KKLDTFFVKLSLFAER (SEQ ID NO: 489)] : reported RAMPO Score = ?
305

Entry KKLDTFFVKKSLFTER [KKLDTFFVKKSLFTER (SEQ ID NO: 506)] : reported RAMPO Score = ?
285

Entry KKLDSFFVKLSLFTER [KKLDSFFVKLSLFTER (SEQ ID NO: 310)] : reported RAMPO Score = ?
458
